Test: probe aInhba binding on compound microarray – biochemical, small-molecule microarray, 635/667 nm fluorescence, primary screen (AID 1148);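 also: score merges 667nm spot fluorescence with signal-to-noise for antibody binding to printed compounds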
Settings: higher = more signal
Each entry belongs to exactly one class, chosen by where its composite z-score falls: band 1 = under -0.05, band 2 = from -0.05 up to 0.2, band 3 = 0.2 and over

compound	label-class
COc1ccc([Si](C)(C)[C@@H]2[C@@H](CCO)O[C@]3(C(=O)N(Cc4cccc(N5C(=O)COc6ccccc65)c4)c4ccccc43)[C@H]2C)cc1	band 2

Classify this compound: COC(=O)C(CC#Cc1ccc2c(c1)[C@]1(C(=O)N2)[C@H](c2ccc(O)cc2)N2[C@H](c3ccccc3)[C@H](c3ccccc3)OC(=O)[C@H]2[C@@H]1C(N)=O)C(=O)OC
band 1
